Each recorded value in this set is attributed to the METLIN SMRT retention time set (Domingo-Almenara et al. 2019).

Test: gradient 5% acetonitrile 3 min, to 50% in 2 min, to 85% in 15 min, held 3 min, 100 µL/min
Details: column: Zorbax Extend-C18 2.1 x 50 mm; eluents: water / acetonitrile, 0.1% formic acid
VALUE TYPE: RP-LC retention time (s)

COMPOUND: Cc1nc(-c2noc(-c3cccc(F)c3)n2)cn1CC(=O)Nc1cccc(Cl)c1
VALUE TYPE: RP-LC retention time
RESULT UNIT: s
RECORDED MEASUREMENT: 957
//
COMPOUND: Cc1cc(=O)c(OCc2ccccc2F)cn1CC(=O)NCc1ccccc1Cl
VALUE TYPE: RP-LC retention time
RESULT UNIT: s
RECORDED MEASUREMENT: 632
//
COMPOUND: CC1(C(=O)NCc2ccc(Cl)cc2)CN(S(C)(=O)=O)CC(=O)N1c1ccc(F)cc1 (stereo not given)
VALUE TYPE: RP-LC retention time
RESULT UNIT: s
RECORDED MEASUREMENT: 800
//
COMPOUND: Cc1ccc2c(c1)N(S(C)(=O)=O)CCC(C(=O)Nc1cc(Cl)ccc1C)O2 (stereo not given)
VALUE TYPE: RP-LC retention time
RESULT UNIT: s
RECORDED MEASUREMENT: 919
//
COMPOUND: COCCN(CC(=O)N1CCc2sccc2C1COc1cccc(F)c1)C(=O)C1CCCC1 (stereo not given)
VALUE TYPE: RP-LC retention time
RESULT UNIT: s
RECORDED MEASUREMENT: 999
//
COMPOUND: Cc1ccc(S(=O)(=O)N2CCC(CCNC(=O)NC(C)C)CC2)cc1
VALUE TYPE: RP-LC retention time
RESULT UNIT: s
RECORDED MEASUREMENT: 796
//
COMPOUND: CCOc1ccc(NC(=O)C2(C)CCCCC(=O)N2)cc1 (stereo not given)
VALUE TYPE: RP-LC retention time
RESULT UNIT: s
RECORDED MEASUREMENT: 690
//
COMPOUND: CC(C)n1cc(C2=CCN(C(=O)NC3CCCCC3)CC2)c2cccnc21
VALUE TYPE: RP-LC retention time
RESULT UNIT: s
RECORDED MEASUREMENT: 945
//
COMPOUND: COCCC(=O)N1CCOc2ccc(N(C)C)cc2C1
VALUE TYPE: RP-LC retention time
RESULT UNIT: s
RECORDED MEASUREMENT: 612
//
COMPOUND: CCCC(=O)Nc1ccc2c(c1)CN(C(=O)CC1CCCC1)C(C(=O)N(C)C)C2 (stereo not given)
VALUE TYPE: RP-LC retention time
RESULT UNIT: s
RECORDED MEASUREMENT: 716
